This section presents compounds with their documented IC50 values.
Tested on: T98-G cells
Assay: Glioblastoma toxicity screening assay (nuclei count by imaging, 17 h)
Format: cell-based
Settings: Homo sapiens, T98G; Figure 4

Query: Recorded IC50 of CC1(C)CCC(=O)[C@@]2(C)OO[C@H]3C[C@@]12CC[C@H]3OC(=O)c1cccc(-c2ccccc2)c1 [compound 15] , please.
Reply: > 50 µM

* * *

Tested on: HeLa cells
Assay: HeLa toxicity screening assay (nuclei count by imaging, 17 h)
Assay type: cell-based, human
Details: Homo sapiens, HeLa
pIC50: −log10 of the molar value.
ENDPOINT LABEL: pIC50

Query: Kindly state the measured pIC50 obtained for CN(C)c1ccc2c(CC(=O)O[C@@H]3CC[C@@]45C[C@@H]3OO[C@]4(C)C(=O)CCC5(C)C)cc(=O)oc2c1 with HeLa cells.
Reply: < 4.30
